Form field: IC50 (one value per entry).
target.or.system: Bromodomain-containing protein 4 (Homo sapiens, UniProt O60885)
measurement.protocol: Inhibition of BRD4 bromodomain-1 (unknown origin) by AlphaScreen assay
measurement.context: read-out: pIC50 (converted)
Write the quantity with the unit trailing the number.

Some solved entries appear below for comparison.
Cc1noc(C)c1-c1ccc2nc[nH]c2c1    6.31 µM
Cc1noc(C)c1-c1ccc2c(c1)ncn2Cc1cccc(Br)c1    1.58 µM
Cc1noc(C)c1-c1ccc2c(c1)C(OCc1ccccc1)CC2 (racemic)    31.6 µM
Cc1noc(C)c1-c1ccc2ncn(Cc3ccccc3C#N)c2c1    1 µM

Note IC50 for the molecule shown: Cc1noc(C)c1-c1ccc2c(c1)C(OCCCN1CCCC1)CC2 (racemic)
6.31 µM

Note IC50 for the molecule shown: Cc1noc(C)c1-c1ccc2ncn(Cc3ccc(Cl)c(Cl)c3)c2c1
3.98 µM

Note IC50 for the molecule shown: Cc1noc(C)c1-c1ccc2ncn(Cc3cccc(C(=O)N(C)C)c3)c2c1
0.631 µM

Note IC50 for the molecule shown: Cc1noc(C)c1-c1ccc2c(c1)nc(C)n2Cc1ccc(O)cc1
2 µM

Note IC50 for the molecule shown: Cc1noc(C)c1-c1ccc2c(c1)ncn2Cc1ccc(Cl)c(Cl)c1
10 µM

Note IC50 for the molecule shown: Cc1noc(C)c1-c1ccc2c(c1)C(OCCCN1CCCCC1)CC2 (racemic)
6.31 µM

Note IC50 for the molecule shown: Cc1noc(C)c1-c1ccc2c(c1)C(OCCCN1CCOCC1)CC2 (racemic)
6.31 µM

* * *

target.or.system: Bromodomain-containing protein 4 (Homo sapiens, UniProt O60885)
measurement.protocol: Inhibition of BRD4 bromodomain-1 (unknown origin) by AlphaScreen assay
measurement.context: read-out: pIC50 (converted)
Could you mark each record Met if its IC50 falls strictly under 2 µM, and Not met if it equals or exceeds it?

Cc1noc(C)c1-c1ccc2ncn(Cc3cccc(Cl)c3)c2c1    Met

Problem: For the compound Cc1noc(C)c1-c1ccc2ncn(Cc3cccc(Br)c3)c2c1 , is IC50 under 2 µM?
Met

Problem: For the compound Cc1noc(C)c1-c1ccc2c(c1)C(OCc1ccc3ccccc3n1)CC2 (racemic) , is IC50 under 2 µM?
Not met

* * *

Form field: log10(IC50) (one value per entry).
target.or.system: Bromodomain-containing protein 4 (Homo sapiens, UniProt O60885)
measurement.protocol: Inhibition of BRD4 bromodomain-1 (unknown origin) by AlphaScreen assay
measurement.context: read-out: pIC50 (converted)
Friendly reminder: values = log10 of IC50, unit nM.

Some solved entries appear below for comparison.
Cc1noc(C)c1-c1ccc2c(c1)ncn2Cc1ccc(Cl)cc1    3.40
COc1ccc(Cn2cnc3ccc(-c4c(C)noc4C)cc32)cc1    2.90
Cc1noc(C)c1-c1ccc2c(c1)ncn2Cc1ccccc1[N+](=O)[O-]    4.10
Cc1noc(C)c1-c1ccc2ncn(Cc3ccc(C(=O)N(C)C)cc3)c2c1    3.30
Cc1noc(C)c1-c1ccc2c(c1)C(O)(c1ccccc1)CC2 (racemic)    3.10

Note log10(IC50) for the compound shown: Cc1noc(C)c1-c1ccc2ncn(Cc3ccccc3Cl)c2c1
2.90

Note log10(IC50) for the compound shown: COC(=O)c1ccc(Cn2cnc3ccc(-c4c(C)noc4C)cc32)cc1
3.10

Note log10(IC50) for the compound shown: Cc1noc(C)c1-c1ccc2c(c1)C(OCCCN1CCNCC1)CC2 (racemic)
3.60

Note log10(IC50) for the compound shown: Cc1noc(C)c1-c1ccc2ncn(Cc3ccc(C#N)cc3)c2c1
2.30

Note log10(IC50) for the compound shown: Cc1noc(C)c1-c1ccc2ncn(Cc3ccccc3[N+](=O)[O-])c2c1
2.80

Note log10(IC50) for the compound shown: Cc1noc(C)c1-c1ccc2c(c1)C(=O)CC2
4.80
